target-under-test: HIV reverse transcriptase (Human immunodeficiency virus type 1 group M subtype B, UniProt P03366)
experiment: Reverse transcriptase scintillation proximity assay (Example 4, Table 2)
Type: biochemical
conditions-used: 0.05 h, 10 μM inhibitor; relative to dimethyl sulfoxide = 100%; read-out: % RT activity remaining at 10 μM
Assign classes using reported remaining activity at 10 µM values and the ranges low band: < 1%; middle band: ≥ 1% and < 80%; high band: ≥ 80%, please.

Before answering, review these 3 worked examples.
Which class holds O=C(Nc1ccc2c(O)c(N=Nc3c(Cl)cc(C(=O)O)cc3Cl)c(S(=O)(=O)O)cc2c1)Nc1ccc2c(O)c(N=Nc3c(Cl)cc(C(=O)O)cc3Cl)c(S(=O)(=O)O)cc2c1 ? middle band

Same thing, different molecule: COC(=O)c1ccccc1NC(=O)Nc1ccc2c(O)cc(S(=O)(=O)O)cc2c1 high band

Same thing, different molecule: Cc1cc(C(=O)O)ccc1N=Nc1c(S(=O)(=O)O)cc2cc(Nc3c(Nc4ccc5c(O)c(N=Nc6ccc(C(=O)O)cc6C)c(S(=O)(=O)O)cc5c4)c(=O)c3=O)ccc2c1O low band

***
Which class holds O=C(Nc1ccc2cc(S(=O)(=O)O)ccc2c1)Nc1ccc2cc(S(=O)(=O)O)ccc2c1 ? high band

Same thing, different molecule: COc1ccc(N=Nc2c(S(=O)(=O)O)cc3cc(NC(=O)c4ccc(C(=O)Nc5ccc6c(O)c(N=Nc7ccc(OC)cc7)c(S(=O)(=O)O)cc6c5)cc4)ccc3c2O)cc1 middle band

Same thing, different molecule: O=C(Nc1ccc2c(O)c(N=Nc3ccc([N+](=O)[O-])cc3)c(S(=O)(=O)O)cc2c1)Nc1ccc2c(O)c(N=Nc3ccc([N+](=O)[O-])cc3)c(S(=O)(=O)O)cc2c1 middle band

Same thing, different molecule: COc1cc(C(=O)O)ccc1N=Nc1c(S(=O)(=O)O)cc2cc(NC(=O)c3ccc(C(=O)Nc4ccc5c(O)c(N=Nc6ccc(C(=O)O)cc6OC)c(S(=O)(=O)O)cc5c4)cc3)ccc2c1O low band

Same thing, different molecule: O=C(O)/C=C/c1ccc(N=Nc2c(S(=O)(=O)O)cc3cc(NC(=O)c4cc(O)cc(C(=O)Nc5ccc6c(O)c(N=Nc7ccc(/C=C/C(=O)O)cc7)c(S(=O)(=O)O)cc6c5)n4)ccc3c2O)cc1 low band

* * *

target-under-test: HIV reverse transcriptase (Human immunodeficiency virus type 1 group M subtype B)
value-type: IC50 (µM)
Report the figure in µM without appending any unit label.

Recorded IC50 for O=C(Nc1ccc2c(O)c(N=Nc3ccccc3)c(S(=O)(=O)O)cc2c1)Nc1ccc2c(O)c(N=Nc3ccccc3)c(S(=O)(=O)O)cc2c1 [Compound 4, calcomine orange, reference compound] , please? 1.5

***
Recorded IC50 for O=C(O)c1c(F)c(F)c(N=Nc2c(S(=O)(=O)O)cc3cc(Nc4c(Nc5ccc6c(O)c(N=Nc7c(F)c(F)c(C(=O)O)c(F)c7F)c(S(=O)(=O)O)cc6c5)c(=O)c4=O)ccc3c2O)c(F)c1F , please? 0.44

Same thing, different molecule: Cc1cc(C(=O)O)ccc1N=Nc1c(S(=O)(=O)O)cc2cc(NC(=O)Nc3ccc4c(O)c(N=Nc5ccc(C(=O)O)cc5C)c(S(=O)(=O)O)cc4c3)ccc2c1O 0.6

Same thing, different molecule: O=C(Nc1ccc2c(O)c(N=Nc3cc(C(=O)O)ccc3C(=O)O)c(S(=O)(=O)O)cc2c1)Nc1ccc2c(O)c(N=Nc3cc(C(=O)O)ccc3C(=O)O)c(S(=O)(=O)O)cc2c1 0.5

Same thing, different molecule: O=C(O)/C=C/c1ccc(N=Nc2c(S(=O)(=O)O)cc3cc(NC(=O)Nc4ccc5c(O)c(N=Nc6ccc(/C=C/C(=O)O)cc6)c(S(=O)(=O)O)cc5c4)ccc3c2O)cc1 0.2

Same thing, different molecule: O=C(Nc1ccc2c(O)c(N=Nc3ccc(-c4nnn[nH]4)cc3)c(S(=O)(=O)O)cc2c1)Nc1ccc2c(O)c(N=Nc3ccc(-c4nnn[nH]4)cc3)c(S(=O)(=O)O)cc2c1 0.22

Same thing, different molecule: O=C(O)/C=C/c1ccc(N=Nc2c(S(=O)(=O)O)cc3ccc(NC(=O)Nc4ccc5cc(S(=O)(=O)O)c(N=Nc6ccc(/C=C/C(=O)O)cc6)c(O)c5c4)cc3c2O)cc1 1.2

Same thing, different molecule: O=C(O)CCCc1ccc(N=Nc2c(S(=O)(=O)O)cc3cc(NC(=O)Nc4ccc5c(O)c(N=Nc6ccc(CCCC(=O)O)cc6)c(S(=O)(=O)O)cc5c4)ccc3c2O)cc1 0.5
